target: Calcium/calmodulin-dependent protein kinase type II subunit delta (Homo sapiens, UniProt Q13557); test: Binding affinity to recombinant human full-length N-terminal GST-tagged CAMK2D expressed in baculovirus expression system using GS peptide as substrate incubated for 1 hr by TR-FRET assay
Sequence (Q13557 whole entry): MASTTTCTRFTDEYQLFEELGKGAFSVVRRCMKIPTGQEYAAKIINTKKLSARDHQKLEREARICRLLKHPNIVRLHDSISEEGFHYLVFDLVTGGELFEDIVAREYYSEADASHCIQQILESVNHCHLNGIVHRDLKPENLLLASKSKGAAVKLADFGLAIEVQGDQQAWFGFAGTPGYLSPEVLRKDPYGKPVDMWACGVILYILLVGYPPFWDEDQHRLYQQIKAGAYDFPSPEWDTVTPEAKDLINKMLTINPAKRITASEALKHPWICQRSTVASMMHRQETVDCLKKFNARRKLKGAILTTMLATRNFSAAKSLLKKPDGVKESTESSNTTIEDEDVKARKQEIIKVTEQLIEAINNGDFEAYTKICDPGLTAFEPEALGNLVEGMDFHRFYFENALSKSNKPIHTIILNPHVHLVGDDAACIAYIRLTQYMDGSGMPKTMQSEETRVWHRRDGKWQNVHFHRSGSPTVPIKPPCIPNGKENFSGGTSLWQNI
Below is a list of entries, each paired with its recorded Kd value.
API: value field is a number in nM; no unit string.

# Item Smiles, Kd [nM]
data = [
    ("CO[C@@H]1[C@H](N(C)CCOCCOCCOCCNC(=O)CCC2=[N+]3C(=Cc4c(C)cc(C)n4[B-]3(F)F)C=C2)C[C@H]2O[C@]1(C)n1c3ccccc3c3c4c(c5c6ccccc6n2c5c31)C(=O)NC4", 6),
]

Moving on to another molecule below.
Qu. Which measured Kd value corresponds to CO[C@@H]1[C@H](NCCOCCOCCOCCNC(=O)CCC2=[N+]3C(=Cc4c(C)cc(C)n4[B-]3(F)F)C=C2)C[C@H]2O[C@]1(C)n1c3ccccc3c3c4c(c5c6ccccc6n2c5c31)C(=O)NC4 ?
Ans. 4
